Assay: Pharmacokinetics of sulfatinib in rats, DDI study with myricetin (UPLC-MS/MS of plasma)
Assay type: in vivo, Sprague-Dawley (SD) rats
Conditions: rat, in vivo, po, 30 mg/kg
recorded metric: AUC (ng·h/mL)
One number for each entry, in ng·h/mL.

Query string: Supply measured AUC of Cc1cc2cc(Oc3ccnc(Nc4cccc(CS(=O)(=O)NCCN(C)C)c4)n3)ccc2[nH]1 in your reply.
Result string: 8970
